Could you please report measured inhibition at 0.025 µM for the items listed next?
# measured_target: thrombin (Homo sapiens)
# run_description: Effect of test compounds on thrombin activity: hydrolysis rate of chromogenic (Chromozim TH) or fluorogenic (BOC-Ala-Pro-Arg-AMC) substrate
# Format: biochemical
# condition_summary: concentration of compound 25 nM

Example molecules with recorded inhibition at 0.025 µM:
{"molecule": "Cc1cc(OCCSC(=N)N)cc(OS(=O)(=O)c2ccccc2S(C)(=O)=O)c1", "recorded_result": "66%"}
{"molecule": "Cc1cc(OCC[n+]2ccc(N)nc2)cc(OS(=O)(=O)c2ccccc2)c1.[I-]", "recorded_result": "10%"}
{"molecule": "Cc1cc(OCC[n+]2ccc(N)cc2)cc(OS(=O)(=O)c2ccccc2)c1 [HC-019s-IOC]", "recorded_result": "88%"}
{"molecule": "Cc1cc(OCCSC(=N)N)cc(OS(=O)(=O)c2ccccc2)c1.I [HC-020s-IOC]", "recorded_result": "59%"}
{"molecule": "Cc1cc(OCCCSC(=N)N)cc(OS(=O)(=O)c2ccccc2Cl)c1 [HC-026s-IOC]", "recorded_result": "64%"}

Lab note: each molecule below needs its inhibition at 0.025 µM filled in.
1. Cc1cc(OCC[n+]2ccc(N)cc2)cc(OS(=O)(=O)c2ccccc2F)c1
2. Cc1ccc(S(=O)(=O)Oc2cc(C)cc(OCC[n+]3ccc(N)cc3)c2)cc1
3. Cc1cc(OCCSC(=N)N)cc(OS(=O)(=O)c2ccccc2Cl)c1
4. Cc1cc(OCC[n+]2ccc(N)cc2)cc(OS(=O)(=O)c2ccccc2S(C)(=O)=O)c1

-- reply
1. 82%
2. 56%
3. 92%
4. 79%

-- ask Output measured inhibition at 0.025 µM for this item: Cc1cc(OCC[n+]2ccc(N)cc2)cc(OS(=O)(=O)c2ccc(Cl)cc2)c1
-- reply 73%

----------
# measured_target: UniProtKB P00734
# run_description: Effect of test compounds on thrombin activity: hydrolysis rate of chromogenic (Chromozim TH) or fluorogenic (BOC-Ala-Pro-Arg-AMC) substrate
# Type: biochemical
# condition_summary: concentration of compound 20 nM
metric_name: inhibition at 0.02 µM (%)
Numbers only, in %.

Lab note: each compound below needs its inhibition at 0.02 µM filled in.
1. Cc1cc(OCCC[n+]2ccsc2N)cc(OS(=O)(=O)c2ccccc2F)c1.[I-]
2. C/N=C(/N)SCCOc1cc(C)cc(OS(=O)(=O)c2ccccc2Cl)c1.I
3. Cc1cc(OCCCSC(=N)N)cc(OS(=O)(=O)c2ccccc2)c1.I [HC-018s-IOC]
4. Cc1cc(OCCCSC(=N)N)cc(OS(=O)(=O)c2ccccc2F)c1.I

-- reply
1: 5; 2: 24; 3: 16; 4: 49

----------
Could you please report measured Hydrolysis rate inhibition, % for the items listed next?
# measured_target: thrombin (Homo sapiens)
# run_description: Effect of test compounds on thrombin activity: hydrolysis rate of chromogenic (Chromozim TH) or fluorogenic (BOC-Ala-Pro-Arg-AMC) substrate
# Type: biochemical
# condition_summary: concentration of compound 2.5 mcM
Answers are plain numbers, in %.

Example compounds with recorded Hydrolysis rate inhibition, %:
{"compound": "Cc1cc(OCCSC(=N)N)cc(OS(=O)(=O)c2ccccc2S(C)(=O)=O)c1 [HC_040s_IOC]", "measured_target": "thrombin (Homo sapiens)", "Hydrolysis rate inhibition, % [%]": 100}
{"compound": "CN(c1ccccc1)S(=O)(=O)c1ccc2c(c1)nc(CC[n+]1ccc(N)cc1)n2C.[Cl-] [HC_027s_IOC]", "measured_target": "thrombin (Homo sapiens)", "Hydrolysis rate inhibition, % [%]": 24}

Query compound follows.
-- ask Output measured Hydrolysis rate inhibition, % for this item: CNc1ccc(S(=O)(=O)N(C)c2ccccc2)cc1NC(=O)CC[n+]1ccc(N)cc1.[Cl-] [HC_028s_IOC]
-- reply 63

----------
# measured_target: UniProtKB P00734
# run_description: Effect of test compounds on thrombin activity: hydrolysis rate of chromogenic (Chromozim TH) or fluorogenic (BOC-Ala-Pro-Arg-AMC) substrate
# Format: biochemical
# condition_summary: concentration of compound 2.5 nM
metric_name: inhibition at 0.0025 µM (%)
One number for each entry, in %.

Example compounds with recorded inhibition at 0.0025 µM:
{"compound": "Cc1cc(OCCSC(=N)N)cc(OS(=O)(=O)c2ccccc2S(C)(=O)=O)c1 [HC_040s_IOC]", "metric_name": "inhibition at 0.0025 µM", "recorded_result": 4}
{"compound": "Cc1cc(OCCSC(=N)N)cc(OS(=O)(=O)c2ccccc2Cl)c1 [HC_046s_IOC]", "metric_name": "inhibition at 0.0025 µM", "recorded_result": 39}

-- ask Report inhibition at 0.0025 µM on UniProtKB P00734 for this entry: Cc1cc(OCC[n+]2ccc(N)cc2)cc(OS(=O)(=O)c2ccc(Cl)cc2)c1 [HC_039s_IOC]
-- reply 24

----------
# measured_target: thrombin (Homo sapiens)
# run_description: Effect of test compounds on thrombin activity: hydrolysis rate of chromogenic (Chromozim TH) or fluorogenic (BOC-Ala-Pro-Arg-AMC) substrate
# Format: biochemical
# condition_summary: concentration of compound 100 nM
Quick rule: inhibition at 0.1 µM of at least 50% means rule met, below that means rule not met.

{"compound": "Cc1cc(OCCC[n+]2ccc(N)cc2)cc(OS(=O)(=O)c2ccccc2F)c1.[I-] [HC_029s_IOC]", "measured_target": "thrombin (Homo sapiens)", "discrete_label": "rule not met"}
{"compound": "C/N=C(/N)SCCCOc1cc(C)cc(OS(=O)(=O)c2ccccc2Cl)c1.I [HC_032s_IOC]", "measured_target": "thrombin (Homo sapiens)", "discrete_label": "rule not met"}
{"compound": "Cc1cc(OCCCSC(=N)N)cc(OS(=O)(=O)c2ccccc2F)c1.I [HC_031s_IOC]", "measured_target": "thrombin (Homo sapiens)", "discrete_label": "rule met"}
{"compound": "Cc1cc(OCCCn2ccsc2=N)cc(OS(=O)(=O)c2ccccc2)c1", "measured_target": "thrombin (Homo sapiens)", "discrete_label": "rule not met"}

-- ask inhibition at 0.1 µM >= 50% for C/N=C(/N)SCCOc1cc(C)cc(OS(=O)(=O)c2ccccc2Cl)c1.I [HC_033s_IOC] ?
-- reply rule met

----------
# measured_target: thrombin (Homo sapiens, UniProt P00734)
# run_description: Effect of test compounds on thrombin activity: hydrolysis rate of chromogenic (Chromozim TH) or fluorogenic (BOC-Ala-Pro-Arg-AMC) substrate
# Format: biochemical
# condition_summary: concentration of compound 0.5 mcM
metric_name: Hydrolysis rate inhibition, % (%)
Numbers only, in %.

Example compounds with recorded Hydrolysis rate inhibition, %:
{"compound": "CN(c1ccccc1)S(=O)(=O)c1ccc2c(c1)nc(CC[n+]1ccc(N)cc1)n2C.[Cl-] [HC_027s_IOC]", "measured_target": "thrombin (Homo sapiens, UniProt P00734)", "value_units": "%", "Hydrolysis rate inhibition, %": 6}
{"compound": "Cc1cc(OCCCSC(=N)N)cc(OS(=O)(=O)c2ccccc2)c1.I [HC-018s-IOC]", "measured_target": "thrombin (Homo sapiens, UniProt P00734)", "value_units": "%", "Hydrolysis rate inhibition, %": 93}
{"compound": "Cc1cc(OCCCn2ccsc2=N)cc(OS(=O)(=O)c2ccccc2)c1", "measured_target": "thrombin (Homo sapiens, UniProt P00734)", "value_units": "%", "Hydrolysis rate inhibition, %": 23}
{"compound": "Nc1cc[n+](CCOc2cccc(NS(=O)(=O)c3ccccc3)c2)cc1 [HC_041s_IOC]", "measured_target": "thrombin (Homo sapiens, UniProt P00734)", "value_units": "%", "Hydrolysis rate inhibition, %": 75}

Query compound follows.
-- ask Output measured Hydrolysis rate inhibition, % for this item: Cc1cc(OCCC[n+]2ccc(N)cc2)cc(OS(=O)(=O)c2ccccc2F)c1.[I-] [HC_029s_IOC]
-- reply 25

----------
# measured_target: thrombin (Homo sapiens, UniProt P00734)
# run_description: Effect of test compounds on thrombin activity: hydrolysis rate of chromogenic (Chromozim TH) or fluorogenic (BOC-Ala-Pro-Arg-AMC) substrate
# Assay type: biochemical
# condition_summary: concentration of compound 2.5 nM
metric_name: inhibition at 0.0025 µM
Answer by giving the amount and then stating its unit.

Example molecules with recorded inhibition at 0.0025 µM:
{"molecule": "Cc1cc(OCC[n+]2ccc(N)cc2)cc(OS(=O)(=O)c2ccccc2F)c1", "inhibition at 0.0025 µM": "43%"}
{"molecule": "Cc1cc(OCC[n+]2ccc(N)cc2)cc(OS(=O)(=O)c2ccccc2Cl)c1 [HC-025s-IOC]", "inhibition at 0.0025 µM": "52%"}
{"molecule": "Cc1cc(OCC[n+]2ccc(N)cc2)cc(OS(=O)(=O)c2ccccc2)c1 [HC-019s-IOC]", "inhibition at 0.0025 µM": "55%"}

Query molecule follows.
-- ask Output measured inhibition at 0.0025 µM for this item: Cc1cc(OCC[n+]2ccc(N)cc2)cc(OS(=O)(=O)c2ccccc2S(C)(=O)=O)c1
-- reply 29%
